# Test system: Phocaeicola vulgatus
# assay-explanation: Antimicrobial activity against Bacteroides vulgatus by agar dilution method in presence of 5% laked sheep blood
# Assay type: functional
measurement-type: MIC50 (µg/mL)
Answers are plain numbers, in µg/mL.

Consider the following illustrative entries.
| given-smiles | test-result |
| --- | --- |
| C[C@@H](O)[C@H]1C(=O)N2C(C(=O)O)=C(S[C@@H]3CN[C@H](CNS(N)(=O)=O)C3)[C@H](C)[C@H]12 | 0.5 |
| C[C@@H](O)[C@H]1C(=O)N2C(C(=O)O)=C(S[C@H]3C[C@@H](C(=O)N4CC[C@H](NC(=O)CNC(=N)N)C4)N(C)C3)[C@H](C)[C@H]12 | 0.5 |
| C[C@@H](O)[C@H]1C(=O)N2C(C(=O)O)=C(S[C@@H]3CN[C@H](C(=O)N(C)C)C3)[C@H](C)[C@H]12 | 0.25 |
| Cc1ncc([N+](=O)[O-])n1CCO | 0.5 |

Kindly review the next compound as well.
Problem: Endpoint output: MIC50 of CC(=N)N1CC[C@H](SC2=C(C(=O)O)N3C(=O)[C@H]([C@@H](C)O)[C@H]3C2)C1 . Value?
Solution: 1

This collection of values is drawn from ChEMBL document CHEMBL1275576.
